Target under test: T1, full-length wild-type Ste2p (Saccharomyces cerevisiae, UniProt D6VTK4 1-431)
T1 sequence (looked up): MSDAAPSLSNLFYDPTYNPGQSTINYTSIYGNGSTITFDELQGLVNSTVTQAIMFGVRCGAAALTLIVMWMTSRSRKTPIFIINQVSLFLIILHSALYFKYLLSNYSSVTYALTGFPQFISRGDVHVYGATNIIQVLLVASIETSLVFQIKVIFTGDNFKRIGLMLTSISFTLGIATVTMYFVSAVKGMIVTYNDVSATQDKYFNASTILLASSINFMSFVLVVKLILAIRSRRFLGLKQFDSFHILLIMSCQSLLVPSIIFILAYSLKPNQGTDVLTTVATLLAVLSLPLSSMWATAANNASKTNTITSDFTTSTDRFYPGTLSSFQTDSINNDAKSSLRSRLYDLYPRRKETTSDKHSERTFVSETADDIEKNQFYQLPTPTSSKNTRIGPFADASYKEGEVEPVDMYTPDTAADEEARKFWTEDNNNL
Assay details: flow cytometry on cells
Reported endpoint: pKd
Keep in mind that pKd stands for -log10 of concentration in molar terms.

-- ask Given the binder WHWLQLKPGQPMY (NBD (7-nitrobenz-2-oxa-1,3-diazol-4-yl) conjugated to the lysine at position 7; norleucine at position 12 in place of methionine) [[K^7(NBD),Nle^12] α-factor] , write its reported pKd.
-- reply 7.55
